- Assay Explanation: refractive index (Na D-line) (dimensionless)
- Condition Set: 298.15 K; 101.33 kPa; Liquid; Standard Abbe refractometry
I'd be grateful if you could share measured refractive index for these entries.
Answer field: number only, no words.

Problem: For the compound CCOC(=O)CC [ethyl propanoate] , what refractive index is on record?
Solution: 1.3815

Problem: Look at this compound and give its reported refractive index. ClCCCCCCCl
Solution: 1.4555

Problem: Reported refractive index, compound CCCC(=O)OCC [ethyl butanoate] : ____
Solution: 1.3895

Problem: Entry under review: ClCCCl . Reported refractive index?
Solution: 1.442

Problem: Fill blank: measured refractive index of the compound ClCCCCCl is ____.
Solution: 1.452

Problem: Quick check: refractive index of ClCCCCl ?
Solution: 1.4455

Problem: GET /values?readout=refractive index&item= CCOC(C)=O [ethyl acetate]
Solution: 1.3692

Problem: What value of measured refractive index is listed for CCOC=O [ethyl methanoate] ?
Solution: 1.358

Problem: For the compound shown here, ClCCCCCCl , give the reported refractive index.
Solution: 1.454

Problem: Recorded refractive index of CCCCC(=O)OCC [ethyl pentanoate] , please.
Solution: 1.398
